measurement_description: Antiproliferative against human BEAS-2B cells measured after 48 hrs by CCK8 assay
Type: toxicity, cell-based

| smiles_representation | IC50 at 48 h |
| --- | --- |
| O=C(Nc1cccc(-c2nncn2C2CC2)n1)c1cc(-c2cnn(C3CC3)c2)cn(Cc2ccccc2F)c1=O | 36 µM |
| O=C(N[C@@H](COc1ccc2[nH]c(=O)[nH]c2c1)c1ccccc1)c1cccn(Cc2ccc(F)c(F)c2)c1=O | 96.4 µM |
| O=C(Nc1cccc(-c2nncn2C2CC2)c1)c1cc(-n2cnc(C3CC3)c2)ccn1 | 90.2 µM |
| CC(C)n1cc(-c2cc(C(=O)Nc3cccc(-c4nncn4C4CC4)n3)c(=O)n(Cc3ccccc3F)c2)cn1 | 33 µM |
